# key: entry, value: binding signal
Target: GST-ANAC092(1-176) (Arabidopsis thaliana, UniProt Q9FKA0 1-176)
Sequence: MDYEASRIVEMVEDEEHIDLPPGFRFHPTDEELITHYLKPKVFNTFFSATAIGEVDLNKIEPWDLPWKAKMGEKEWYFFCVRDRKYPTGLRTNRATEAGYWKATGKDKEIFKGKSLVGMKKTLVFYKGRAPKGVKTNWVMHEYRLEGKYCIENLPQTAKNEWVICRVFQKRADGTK
Experiment: universal protein binding microarray (PBM); high values mean tight binding
Settings: protein: recombinant; tags: GST; chain copies: 2; dsDNA, one strand shown

>  <chain>
ACGTAACG

>  <binding signal, E-score>
0.423

$$$$
>  <chain>
ATGACGTA

>  <binding signal, E-score>
0.443

$$$$
>  <chain>
GTTTCTTA

>  <binding signal, E-score>
0.226

$$$$
>  <chain>
ATACGAAA

>  <binding signal, E-score>
0.393

$$$$
>  <chain>
GCAAGGAA

>  <binding signal, E-score>
0.345

$$$$
>  <chain>
AACACGTT

>  <binding signal, E-score>
0.375

$$$$
>  <chain>
CGTCAAAC

>  <binding signal, E-score>
0.109

$$$$
>  <chain>
AGTCAAAA

>  <binding signal, E-score>
0.157

$$$$
>  <chain>
CAAGCAAC

>  <binding signal, E-score>
0.426

$$$$
>  <chain>
ACGCCATC

>  <binding signal, E-score>
0.421

$$$$
>  <chain>
AAGCAACA

>  <binding signal, E-score>
0.387

$$$$
>  <chain>
AACACGTC

>  <binding signal, E-score>
0.397

$$$$
>  <chain>
CGAAGTAA

>  <binding signal, E-score>
0.199

$$$$
>  <chain>
AAGCAAGC

>  <binding signal, E-score>
0.344

$$$$
>  <chain>
CTGGTCAA

>  <binding signal, E-score>
0.0676

$$$$
>  <chain>
ACGCAAAG

>  <binding signal, E-score>
0.455

$$$$
>  <chain>
ACGCTACA

>  <binding signal, E-score>
0.27

$$$$
>  <chain>
AGTTGACG

>  <binding signal, E-score>
0.0881

$$$$
>  <chain>
TTACTCAA

>  <binding signal, E-score>
0.345

$$$$
>  <chain>
CACGCAAG

>  <binding signal, E-score>
0.481

$$$$
>  <chain>
GTCAAGAA

>  <binding signal, E-score>
0.0716

$$$$
>  <chain>
GTACGCGA

>  <binding signal, E-score>
0.245

$$$$

====

Listed below: binding signal values for each entry.
biological target: GST-WRKY1(266-371) (Arabidopsis thaliana, UniProt Q9SI37 266-371); experiment: universal protein binding microarray (PBM); transcription factors of Arabidopsis thaliana; high values mean tight binding; settings: protein: recombinant; tags: GST; dsDNA, one strand shown
Sequence (Q9SI37 266-371): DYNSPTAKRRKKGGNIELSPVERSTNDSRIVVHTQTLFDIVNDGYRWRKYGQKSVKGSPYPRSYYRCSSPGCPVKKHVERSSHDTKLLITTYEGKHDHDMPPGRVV
experimentalEndpoint: binding signal (E-score)

>  <chain>
CTTGCGTA

>  <unit>
E-score

>  <recordedResult>
0.0686

$$$$
>  <chain>
CGGTCGTC

>  <unit>
E-score

>  <recordedResult>
0.41

$$$$
>  <chain>
AAGGGTCA

>  <unit>
E-score

>  <recordedResult>
0.409

$$$$
>  <chain>
CAAGACCG

>  <unit>
E-score

>  <recordedResult>
0.405

$$$$
>  <chain>
GCTGGTCA

>  <unit>
E-score

>  <recordedResult>
0.452

$$$$
>  <chain>
CGTCAAAC

>  <unit>
E-score

>  <recordedResult>
0.44

$$$$
>  <chain>
AGAGGTCA

>  <unit>
E-score

>  <recordedResult>
0.425

$$$$
>  <chain>
GCGTCAAC

>  <unit>
E-score

>  <recordedResult>
0.443

$$$$
>  <chain>
CCGAGTCA

>  <unit>
E-score

>  <recordedResult>
0.409

$$$$
>  <chain>
AGTCAAGC

>  <unit>
E-score

>  <recordedResult>
0.459

$$$$
>  <chain>
ACTCTGAC

>  <unit>
E-score

>  <recordedResult>
0.437

$$$$
>  <chain>
GTCAATTA

>  <unit>
E-score

>  <recordedResult>
0.42

$$$$
>  <chain>
GACCAGTC

>  <unit>
E-score

>  <recordedResult>
0.406

$$$$
>  <chain>
CTTACTTA

>  <unit>
E-score

>  <recordedResult>
0.235

$$$$
>  <chain>
AACTTGAC

>  <unit>
E-score

>  <recordedResult>
0.425

$$$$
>  <chain>
TTAAGAAA

>  <unit>
E-score

>  <recordedResult>
0.116

$$$$
>  <chain>
GAGTTGAC

>  <unit>
E-score

>  <recordedResult>
0.476

$$$$
>  <chain>
AAGACCGG

>  <unit>
E-score

>  <recordedResult>
0.428

$$$$
>  <chain>
AGTCAACT

>  <unit>
E-score

>  <recordedResult>
0.486

$$$$
>  <chain>
CGTATACG

>  <unit>
E-score

>  <recordedResult>
0.0731

$$$$
>  <chain>
CAAAAGTC

>  <unit>
E-score

>  <recordedResult>
0.432

$$$$
>  <chain>
CCTTGACC

>  <unit>
E-score

>  <recordedResult>
0.487

$$$$
>  <chain>
ATTAGTCA

>  <unit>
E-score

>  <recordedResult>
0.404

$$$$
>  <chain>
AATGTCAA

>  <unit>
E-score

>  <recordedResult>
0.404

$$$$
>  <chain>
TGACCTAA

>  <unit>
E-score

>  <recordedResult>
0.419

$$$$
>  <chain>
CTTACCCC

>  <unit>
E-score

>  <recordedResult>
0.0524

$$$$
>  <chain>
AAAAGTCA

>  <unit>
E-score

>  <recordedResult>
0.461

$$$$
>  <chain>
CACGCAAG

>  <unit>
E-score

>  <recordedResult>
0.0865

$$$$
>  <chain>
CACGAAAG

>  <unit>
E-score

>  <recordedResult>
0.0838

$$$$
>  <chain>
AGACGTGA

>  <unit>
E-score

>  <recordedResult>
0.116

$$$$
>  <chain>
GAGTCAGA

>  <unit>
E-score

>  <recordedResult>
0.419

$$$$
>  <chain>
TGACCCCA

>  <unit>
E-score

>  <recordedResult>
0.428

$$$$
>  <chain>
GGGTCAAA

>  <unit>
E-score

>  <recordedResult>
0.48

$$$$
>  <chain>
GAAAGTCA

>  <unit>
E-score

>  <recordedResult>
0.461

$$$$
>  <chain>
CCGTTGAC

>  <unit>
E-score

>  <recordedResult>
0.49

$$$$
>  <chain>
TAGGTCAA

>  <unit>
E-score

>  <recordedResult>
0.482

$$$$
>  <chain>
GCTGACTA

>  <unit>
E-score

>  <recordedResult>
0.417

$$$$
>  <chain>
TTACGGAA

>  <unit>
E-score

>  <recordedResult>
0.126

$$$$
>  <chain>
CAGTTGAC

>  <unit>
E-score

>  <recordedResult>
0.477

$$$$
>  <chain>
AGTCAATC

>  <unit>
E-score

>  <recordedResult>
0.468

$$$$
>  <chain>
ATCTTGAC

>  <unit>
E-score

>  <recordedResult>
0.47

$$$$
>  <chain>
CTAGGTCA

>  <unit>
E-score

>  <recordedResult>
0.428

$$$$
>  <chain>
CGTTGACA

>  <unit>
E-score

>  <recordedResult>
0.464

$$$$
>  <chain>
CGTCAACG

>  <unit>
E-score

>  <recordedResult>
0.47

$$$$
>  <chain>
GTCAATAA

>  <unit>
E-score

>  <recordedResult>
0.457

$$$$
>  <chain>
AATGGTCA

>  <unit>
E-score

>  <recordedResult>
0.434

$$$$
>  <chain>
GGGTCAGA

>  <unit>
E-score

>  <recordedResult>
0.432

$$$$
>  <chain>
GGGGGTCA

>  <unit>
E-score

>  <recordedResult>
0.423

$$$$
>  <chain>
AGGTCAAT

>  <unit>
E-score

>  <recordedResult>
0.478

$$$$
>  <chain>
TAAAGTCA

>  <unit>
E-score

>  <recordedResult>
0.465

$$$$
>  <chain>
ACGACCAA

>  <unit>
E-score

>  <recordedResult>
0.416

$$$$
>  <chain>
AGTCGGTC

>  <unit>
E-score

>  <recordedResult>
0.403

$$$$
>  <chain>
AACACGTC

>  <unit>
E-score

>  <recordedResult>
0.131

$$$$
>  <chain>
AGTCAACA

>  <unit>
E-score

>  <recordedResult>
0.488

$$$$
>  <chain>
TATGGTCA

>  <unit>
E-score

>  <recordedResult>
0.428

$$$$
>  <chain>
CGGGTCAG

>  <unit>
E-score

>  <recordedResult>
0.408

$$$$
>  <chain>
GCGTGGAC

>  <unit>
E-score

>  <recordedResult>
0.404

$$$$
>  <chain>
TCGTCAAA

>  <unit>
E-score

>  <recordedResult>
0.432

$$$$
>  <chain>
AAGTCCAC

>  <unit>
E-score

>  <recordedResult>
0.418

$$$$
>  <chain>
ACGTAAAA

>  <unit>
E-score

>  <recordedResult>
0.0914

$$$$
>  <chain>
AGTCAATG

>  <unit>
E-score

>  <recordedResult>
0.481

$$$$
>  <chain>
TACAGTCA

>  <unit>
E-score

>  <recordedResult>
0.404

$$$$
>  <chain>
GTACGTCA

>  <unit>
E-score

>  <recordedResult>
0.228

$$$$
>  <chain>
ACTTGACC

>  <unit>
E-score

>  <recordedResult>
0.47

$$$$
>  <chain>
CCCGGTCA

>  <unit>
E-score

>  <recordedResult>
0.445

$$$$
>  <chain>
GGGGTCAA

>  <unit>
E-score

>  <recordedResult>
0.481

$$$$
>  <chain>
AGTGGTCA

>  <unit>
E-score

>  <recordedResult>
0.436

$$$$
>  <chain>
CTTTGACC

>  <unit>
E-score

>  <recordedResult>
0.488

$$$$
>  <chain>
GACCGTCA

>  <unit>
E-score

>  <recordedResult>
0.407

$$$$
>  <chain>
AACGTAAA

>  <unit>
E-score

>  <recordedResult>
0.165

$$$$
>  <chain>
GTAGGTCA

>  <unit>
E-score

>  <recordedResult>
0.416

$$$$
>  <chain>
CTTAGTCA

>  <unit>
E-score

>  <recordedResult>
0.424

$$$$
>  <chain>
ATTTTGAC

>  <unit>
E-score

>  <recordedResult>
0.461

$$$$
>  <chain>
GTCAAGTA

>  <unit>
E-score

>  <recordedResult>
0.417

$$$$
>  <chain>
GTCAAAGA

>  <unit>
E-score

>  <recordedResult>
0.469

$$$$
>  <chain>
AGTCAGCC

>  <unit>
E-score

>  <recordedResult>
0.415

$$$$
>  <chain>
AGTCAAAA

>  <unit>
E-score

>  <recordedResult>
0.47

$$$$
>  <chain>
GTCAACAC

>  <unit>
E-score

>  <recordedResult>
0.478

$$$$
>  <chain>
TAGCGTGA

>  <unit>
E-score

>  <recordedResult>
0.0738

$$$$
>  <chain>
CCGGTCAA

>  <unit>
E-score

>  <recordedResult>
0.493

$$$$
>  <chain>
ATAGTCAA

>  <unit>
E-score

>  <recordedResult>
0.473

$$$$
>  <chain>
CATTGACC

>  <unit>
E-score

>  <recordedResult>
0.491

$$$$
>  <chain>
GGTCAAAA

>  <unit>
E-score

>  <recordedResult>
0.478

$$$$
>  <chain>
AGTCAAGG

>  <unit>
E-score

>  <recordedResult>
0.475

$$$$
>  <chain>
GACGCAAA

>  <unit>
E-score

>  <recordedResult>
0.117

$$$$
>  <chain>
TGACCAAA

>  <unit>
E-score

>  <recordedResult>
0.457

$$$$
>  <chain>
CTTTTGAC

>  <unit>
E-score

>  <recordedResult>
0.448

$$$$
>  <chain>
AAGTCAAA

>  <unit>
E-score

>  <recordedResult>
0.488

$$$$
>  <chain>
CGAGGTCA

>  <unit>
E-score

>  <recordedResult>
0.425

$$$$
>  <chain>
CTAGTCAA

>  <unit>
E-score

>  <recordedResult>
0.474

$$$$
>  <chain>
CGTGCACG

>  <unit>
E-score

>  <recordedResult>
0.0812

$$$$
